studySystem: AURKA (Homo sapiens)
Construct: endogenous in cells; host or cells: Jurkat cells
Sequence (O14965 1-403): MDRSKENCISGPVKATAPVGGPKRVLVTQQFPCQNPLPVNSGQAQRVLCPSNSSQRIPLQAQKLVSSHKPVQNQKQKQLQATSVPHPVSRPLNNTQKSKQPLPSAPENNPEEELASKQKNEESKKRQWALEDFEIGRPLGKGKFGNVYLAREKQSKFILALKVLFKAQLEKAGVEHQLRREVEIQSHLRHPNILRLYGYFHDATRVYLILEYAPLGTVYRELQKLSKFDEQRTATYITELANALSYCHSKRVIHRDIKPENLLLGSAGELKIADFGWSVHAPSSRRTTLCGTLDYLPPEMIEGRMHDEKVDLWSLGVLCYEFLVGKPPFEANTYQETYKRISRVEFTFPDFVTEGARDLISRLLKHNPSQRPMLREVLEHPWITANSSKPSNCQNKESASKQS
Format: cell-based
testSettings: 1 µM compound, Jurkat cells, 24 h, Table 1
quantity: Percentage of AURKA Degradation Induced by 1 µM Compound in Jurkat Cells

[[record]]
molecule = "O=C1CCN(c2cnc3c(N4CCN(CCNC(=O)c5ccc(Nc6ncc7c(n6)-c6ccc(Cl)cc6C(c6c(F)cccc6F)=NC7)cc5)CC4)cccn23)C(=O)N1 [Compound A22]"
studysystem = "AURKA (Homo sapiens)"
obsvalue = "+++ (Degradation > 70%)"

[[record]]
molecule = "O=C1CCN(c2ccc(N3CC4(CC(NC(=O)c5ccc(Nc6ncc7c(n6)-c6ccc(Cl)cc6C(c6c(F)cccc6F)=NC7)cc5)C4)C3)cc2)C(=O)N1 [Compound A59]"
studysystem = "AURKA (Homo sapiens)"
obsvalue = "+++ (Degradation > 70%)"


====

assayNotes: Mouse PK study
Type: in vivo
testSettings: mouse, plasma; PO 40 mg/kg, male CD1 mice
quantity: Tmax (h)

[[record]]
compound = "O=C1CCN(c2ccc(N3CCC4(CC3)CC(N3CCN(C56CC(Nc7ncc8c(n7)-c7ccc(Cl)cc7C(c7c(F)cccc7F)=NC8)(C5)C6)C(=O)C3)CO4)nc2)C(=O)N1 (centres unmarked) [Compound A321]"
unitsofmeasure = "h"
obsvalue = 3.33

[[record]]
compound = "O=C1CCN(c2ccc(N3CCO[C@H](C(=O)N4CCN(c5ccc(Nc6ncc7c(n6)-c6ccc(Cl)cc6C(c6c(F)cccc6F)=NC7)cc5)CC4)C3)nc2)C(=O)N1 [Compound A307]"
unitsofmeasure = "h"
obsvalue = 3.33


====

studySystem: AURKA (Homo sapiens, UniProt O14965)
Construct: endogenous in cells; host or cells: Jurkat cells
Format: cell-based
testSettings: 100 nM compound, Jurkat cells, 24 h, Table 1
quantity: Percentage of AURKA Degradation Induced by 100 nM Compound in Jurkat Cells

[[record]]
compound = "COc1cc(Nc2ncc3c(n2)-c2ccc(Cl)cc2C(c2c(F)cccc2OC)=NC3)ccc1C(=O)NCCN1CCC(n2cnc(N3CCC(=O)NC3=O)c2)CC1"
obsvalue = "+ (Degradation ≤ 30%)"

[[record]]
compound = "O=C1CCN(c2ccc(N3CC4(CCC(NC(=O)c5ccc(Nc6ncc7c(n6)-c6ccc(Cl)cc6C(c6c(F)cccc6F)=NC7)cc5)CC4)C3)nc2)C(=O)N1"
obsvalue = "+++ (Degradation > 70%)"

[[record]]
compound = "COc1cccc(F)c1C1=NCc2cnc(Nc3ccc(C(=O)NC4CC5(CCN(c6ccc(N7CCC(=O)NC7=O)cc6)CC5)C4)cc3)nc2-c2ccc(Cl)cc21"
obsvalue = "+++ (Degradation > 70%)"

[[record]]
compound = "COc1cc(Nc2ncc3c(n2)-c2ccc(Cl)cc2C(c2c(F)cccc2OC)=NC3)ccc1C(=O)NC1CCN(Cc2ccc(N3CCC(=O)NC3=O)cc2)CC1"
obsvalue = "+ (Degradation ≤ 30%)"

[[record]]
compound = "COc1cccc(F)c1C1=NCc2cnc(Nc3ccc(C(=O)NCCN4CCN(c5ccc(N6CCC(=O)NC6=O)cn5)C5(CC5)C4)cc3)nc2-c2ccc(Cl)cc21"
obsvalue = "+ (Degradation ≤ 30%)"

[[record]]
compound = "CN(CCN1CCN(c2ccc(N3CCC(=O)NC3=O)cc2)CC1)C(=O)c1ccc(Nc2ncc3c(n2)-c2ccc(Cl)cc2C(c2c(F)cccc2F)=NC3)cc1"
obsvalue = "+++ (Degradation > 70%)"

[[record]]
compound = "COc1cc(Nc2ncc3c(n2)-c2ccc(Cl)cc2C(c2c(F)cccc2OC)=NC3)ccc1C(=O)NCCN1Cc2cc3c(cc2C1)C(=O)N(C1CCC(=O)NC1=O)C3=O (centres unmarked)"
obsvalue = "+ (Degradation ≤ 30%)"

[[record]]
compound = "O=C1CCN(c2ccc(N3CC4(CCC(NC(=O)c5ccc(Nc6ncc7c(n6)-c6ccc(Cl)cc6C(c6c(F)cccc6F)=NC7)cc5)CC4)C3)cc2)C(=O)N1"
obsvalue = "+++ (Degradation > 70%)"

[[record]]
compound = "COc1cccc(F)c1C1=NCc2cnc(Nc3ccc(C(=O)NCCN4CCN(c5ccc(N6CCC(=O)NC6=O)cn5)CC45CC5)cc3)nc2-c2ccc(Cl)cc21"
obsvalue = "+++ (Degradation > 70%)"

